All values here come from paper PMC8535469.

Biological target: hNudt16E76Q (Homo sapiens, UniProt Q96DE0, E76Q)
Construct: 4xHis (four added histidines); made in house; host or cells: E. coli Rosetta 2 (DE3), pET16b
Sequence (Q96DE0 whole entry E76Q): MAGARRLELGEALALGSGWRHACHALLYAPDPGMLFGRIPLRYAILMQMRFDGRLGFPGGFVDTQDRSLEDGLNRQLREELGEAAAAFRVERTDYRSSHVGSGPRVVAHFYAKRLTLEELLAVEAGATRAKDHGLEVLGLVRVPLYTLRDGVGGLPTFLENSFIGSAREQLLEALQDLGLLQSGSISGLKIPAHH
Test: Microscale thermophoresis (MST) binding, two independent binding sites model
Details: stronger binding site, 50 nM dye-labeled protein; read-out: Kd1
Protocol: Binding constants for protein–ligand pairs were established using the MST method. […] After 10 min of pre-incubation, dye-labeled protein–ligand samples were manually loaded into Monolith™ NT.115 Premium Capillaries (NanoTemper Technologies, München, Germany) and analyzed using the Monolith NT.115 (NanoTemper Technologies). […] For the dissociation constants obtained, we also calculated the free energy associated with the dissociation of the complex ΔGdiss according to the equation: ΔGdiss=−RTlnKd.
Record form. Attribute: pKd. Fill in for each entry.
Numbers only, as −log10 of the molar value.

Here is how some compounds turned out for pKd.
smiles_code=Nc1nc2c(ncn2[C@@H]2O[C@H](COP(=O)(O)OP(=O)(O)OC[C@H]3O[C@@H](n4cnc5c(=O)[nH]c(N)nc54)[C@H](O)[C@@H]3O)[C@@H](O)[C@H]2O)c(=O)[nH]1 subject_of_test="hNudt16E76Q (Homo sapiens, UniProt Q96DE0, E76Q)" measure=pKd assay_value=7.14
smiles_code=Cn1c[n+]([C@@H]2O[C@H](COP(=O)(O)OP(=O)([O-])OP(=O)(O)OC[C@H]3O[C@@H](n4cnc5c(=O)[nH]c(N)nc54)[C@H](O)[C@@H]3O)[C@@H](O)[C@H]2O)c2nc(N)[nH]c(=O)c21 subject_of_test="hNudt16E76Q (Homo sapiens, UniProt Q96DE0, E76Q)" measure=pKd assay_value=5.77

Let us move to another entry and its pKd.
Fill in the blank: the reported pKd of "CC(C)(COP(=O)(O)OP(=O)(O)OC[C@H]1O[C@@H](n2cnc3c(N)ncnc32)[C@H](O)[C@@H]1O)[C@@H](O)C(=O)NCCC(=O)NCCS" is ____.
4.37

====

Target: hNudt16E76Q (Homo sapiens, UniProt Q96DE0, E76Q)
Construct: 4xHis (four added histidines); made in house; host or cells: E. coli Rosetta 2 (DE3), pET16b
Assay: Thermal stability of hNudt16E76Q with ligands, dye-free nanoDSF
Assay type: binding
Conditions: 5 µM hNudt16E76Q, 20 mM MgCl2, 0.5 mM ligand, relative to apo
Experimental: Protein thermal stability in the presence of various ligands was measured using two DSF methods: assays with SYPRO orange dye and dye-free assays. DSF assays with SYPRO orange dye were performed at specific ligand concentrations for each protein–ligand pair. This measurement was performed as described in Section 4.6.1, with a constant MgCl2 concentration of 20 mM and a concentration of the tested ligand maintained at 0.5 mM. […]
Record form. Attribute: ∆Tm, nanoDSF (Dye-Free). Fill in for each entry.
One number for each entry, in °C.

Here is how some molecules turned out for ∆Tm, nanoDSF (Dye-Free).
molecule="CC(C)(COP(=O)(O)OP(=O)(O)OC[C@H]1O[C@@H](n2cnc3c(N)ncnc32)[C@H](O)[C@@H]1O)[C@@H](O)C(=O)NCCC(=O)NCCS [dpCoA, Dephospho-coenzyme A]" measure="∆Tm, nanoDSF (Dye-Free)" unit_abbreviation=°C assay_value=3.1
molecule="NC(=O)C1=CN([C@@H]2O[C@H](COP(=O)(O)OP(=O)(O)OC[C@H]3O[C@@H](n4cnc5c(N)ncnc54)[C@H](O)[C@@H]3O)[C@@H](O)[C@H]2O)C=CC1 [NADH, Reduced NAD+]" measure="∆Tm, nanoDSF (Dye-Free)" unit_abbreviation=°C assay_value=2.4

Would you mind giving ∆Tm, nanoDSF (Dye-Free) for every molecule in the list below?
1. Nc1nc2c(ncn2[C@@H]2O[C@H](COP(=O)(O)OP(=O)(O)OC[C@H]3O[C@@H](n4cnc5c(=O)[nH]c(N)nc54)[C@H](O)[C@@H]3O)[C@@H](O)[C@H]2O)c(=O)[nH]1 [GppG]
2. O=c1[nH]cnc2c1ncn2[C@@H]1O[C@H](COP(=O)(O)OP(=O)(O)O)[C@@H](O)[C@H]1O [IDP, Inosine diphosphate]
3. Nc1ccn([C@@H]2O[C@H](COP(=O)(O)OP(=O)(O)O)[C@@H](O)[C@H]2O)c(=O)n1 [CDP, Cytidine diphosphate]

[18.0, 17.8, 1.66]
